# experimental.target: cellular cereblon (CRBN) (Homo sapiens, UniProt Q96SW2)
# procedure.summary: NanoBRET Target Engagement Assay, competition with pomalidomide tracer in 293T.116 cells
# particulars: NanoBRET TE 293T.116 CRBN 6 hours IC50 nM, 6 hours incubation, 293T.116 cells
observation.type: IC50

Study these solved cases before continuing.
{"molecule": "O=C1CCC(Oc2ccc(C3CCNCC3)c(S(=O)(=O)F)c2)C(=O)N1 (centres unmarked) [Compound A-38]", "IC50": "< 1000 nM"}
{"molecule": "O=C1CCC(n2c(=O)oc3c(S(=O)(=O)F)cccc32)C(=O)N1 (centres unmarked) [Compound A-29]", "IC50": "< 1000 nM"}

[ask] // lookup IC50 for CN(c1cccc(S(=O)(=O)F)c1)C1CCC(=O)NC1=O (centres unmarked) [Compound A-11]
[reply] < 1000 nM

[ask] // lookup IC50 for COc1ccc(OC2CCC(=O)NC2=O)cc1OS(=O)(=O)F (centres unmarked) [Compound A-27]
[reply] 1000 to 10000 nM

[ask] // lookup IC50 for Cn1nc(N2CCC(=O)NC2=O)c2cccc(S(=O)(=O)F)c21 [Compound A-10]
[reply] < 1000 nM

###

# experimental.target: cellular cereblon (CRBN) (Homo sapiens, UniProt Q96SW2)
# procedure.summary: NanoBRET Target Engagement Assay, competition with pomalidomide tracer in 293T.116 cells
# particulars: 6 hours incubation, 293T.116 cells; IP

{"compound": "O=C1CCC(c2ccc(N3CCNCC3)c(OS(=O)(=O)F)c2)C(=O)N1 (centres unmarked)", "experimental.target": "cellular cereblon (CRBN) (Homo sapiens, UniProt Q96SW2)", "NanoBRET TE 293T.116 CRBN 6 hours IP nM": "*** (<= 1 μM is ***)"}
{"compound": "O=C1CCC(n2c(=O)oc3c(S(=O)(=O)F)cccc32)C(=O)N1 (centres unmarked)", "experimental.target": "cellular cereblon (CRBN) (Homo sapiens, UniProt Q96SW2)", "NanoBRET TE 293T.116 CRBN 6 hours IP nM": "*** (<= 1 μM is ***)"}

###

Form field: IC50 (one value per entry).
# experimental.target: cellular cereblon (CRBN) (Homo sapiens, UniProt Q96SW2)
# procedure.summary: NanoBRET Target Engagement Assay, competition with pomalidomide tracer in 293T.116 cells
# particulars: NanoBRET TE 293T.116 CRBN 24 hours IC50 nM, 24 hours incubation, 293T.116 cells

{"compound": "O=C1CCC(Nc2ccc(C3CCNCC3)c(OS(=O)(=O)F)c2)C(=O)N1 (stereo not drawn)", "IC50": "< 1000 nM"}
{"compound": "O=C1NC(=O)C2(c3ccc(S(=O)(=O)F)cc3)CC1C2", "IC50": "> 10000 nM"}
{"compound": "COc1ccc(OC2CCC(=O)NC2=O)cc1OS(=O)(=O)F (stereo not drawn)", "IC50": "> 10000 nM"}

[ask] Notebook: pull reported IC50 for cellular cereblon (CRBN) (Homo sapiens, UniProt Q96SW2), entry "Cn1nc(N2CCC(=O)NC2=O)c2cccc(OS(=O)(=O)F)c21"
[reply] 1000 to 10000 nM

[ask] Notebook: pull reported IC50 for cellular cereblon (CRBN) (Homo sapiens, UniProt Q96SW2), entry O=C1CCN(c2ccc(N3CCNCC3)c(OS(=O)(=O)F)c2)C(=O)N1 [drawing 1166]
[reply] 1000 to 10000 nM

[ask] Notebook: pull reported IC50 for cellular cereblon (CRBN) (Homo sapiens, UniProt Q96SW2), entry "Cn1nc(N2CCC(=O)NC2=O)c2cccc(S(=O)(=O)F)c21"
[reply] < 1000 nM

[ask] Notebook: pull reported IC50 for cellular cereblon (CRBN) (Homo sapiens, UniProt Q96SW2), entry O=C1CCC(c2cccc(OS(=O)(=O)F)c2)C(=O)N1 (stereo not drawn)
[reply] 1000 to 10000 nM

[ask] Notebook: pull reported IC50 for cellular cereblon (CRBN) (Homo sapiens, UniProt Q96SW2), entry "O=C1CCN(c2ccc(S(=O)(=O)F)cc2)C(=O)N1"
[reply] > 10000 nM

[ask] Notebook: pull reported IC50 for cellular cereblon (CRBN) (Homo sapiens, UniProt Q96SW2), entry "O=C1NC(=O)C2(Nc3ccc(S(=O)(=O)F)cc3)CC1C2"
[reply] 1000 to 10000 nM

###

# experimental.target: mutant BRAF V600E (Homo sapiens, UniProt P15056, V600E)
# procedure.summary: BRAF V600E HiBiT Degradation Assay in A375.10 cells
# particulars: 2 hours, A375.10 cells; inflection point of the dose-response curve
observation.type: HiBIT-Degradation A375.10 BRAF 2 hours IP nM

Study these solved cases before continuing.
{"molecule": "CCN(C)S(=O)(=O)Nc1ccc(F)c(Oc2ccc3ncn([C@@H]4COC5(CCN(C(=O)CN6CCC(c7ccc(C8CCC(=O)NC8=O)cc7OS(=O)(=O)F)CC6)CC5)C4)c(=O)c3c2)c1C#N (stereo partly drawn) [drawing 1189]", "experimental.target": "mutant BRAF V600E (Homo sapiens, UniProt P15056, V600E)", "readout.value": "*** (<= 1 μM is)"}
{"molecule": "CCN(C)S(=O)(=O)Nc1ccc(F)c(Oc2ccc3ncn([C@H]4COC5(CCN(C(=O)CN6CCN(c7ccc(C8CCC(=O)NC8=O)cc7OS(=O)(=O)F)CC6)CC5)C4)c(=O)c3c2)c1C#N (stereo partly drawn) [drawing 1191]", "experimental.target": "mutant BRAF V600E (Homo sapiens, UniProt P15056, V600E)", "readout.value": "*** (<= 1 μM is)"}
{"molecule": "CCN(C)S(=O)(=O)Nc1ccc(F)c(Oc2ccc3ncn([C@H]4COC5(CCN(C(=O)CN6CCC(c7ccc(OC8CCC(=O)NC8=O)cc7S(=O)(=O)F)CC6)CC5)C4)c(=O)c3c2)c1C#N (stereo partly drawn) [drawing 1200]", "experimental.target": "mutant BRAF V600E (Homo sapiens, UniProt P15056, V600E)", "readout.value": "*** (<= 1 μM is)"}
{"molecule": "CCN(C)S(=O)(=O)Nc1ccc(F)c(Oc2ccc3ncn([C@H]4COC5(CCN(C(=O)CN6CCC(c7ccc(C8CCC(=O)NC8=O)cc7OS(=O)(=O)F)CC6)CC5)C4)c(=O)c3c2)c1C#N (stereo partly drawn) [drawing 1190]", "experimental.target": "mutant BRAF V600E (Homo sapiens, UniProt P15056, V600E)", "readout.value": "*** (<= 1 μM is)"}
{"molecule": "CCN(C)S(=O)(=O)Nc1ccc(F)c(Oc2ccc3ncn([C@H]4COC5(CCN(C(=O)CN6CCC(c7ccc(NC8CCC(=O)NC8=O)cc7OS(C)(=O)=O)CC6)CC5)C4)c(=O)c3c2)c1C#N (stereo partly drawn) [drawing 1202]", "experimental.target": "mutant BRAF V600E (Homo sapiens, UniProt P15056, V600E)", "readout.value": "*** (<= 1 μM is)"}

[ask] // lookup HiBIT-Degradation A375.10 BRAF 2 hours IP nM for CCN(C)S(=O)(=O)Nc1ccc(F)c(Oc2ccc3ncn([C@@H]4COC5(CCN(C(=O)CN6CCC(c7ccc(N8CCC(=O)NC8=O)cc7OS(=O)(=O)F)CC6)CC5)C4)c(=O)c3c2)c1C#N [drawing 1192]
[reply] * (>=10 μM is *)

[ask] // lookup HiBIT-Degradation A375.10 BRAF 2 hours IP nM for CCN(C)S(=O)(=O)Nc1ccc(F)c(Oc2ccc3ncn([C@H]4COC5(CCN(C(=O)CN6CCN(c7ccc(C8CCC(=O)NC8=O)cc7OS(=O)(=O)F)CC6)CC5)C4)c(=O)c3c2)c1C#N (stereo partly drawn) [drawing 1199]
[reply] *** (<= 1 μM is)

[ask] // lookup HiBIT-Degradation A375.10 BRAF 2 hours IP nM for CCN(C)S(=O)(=O)Nc1ccc(F)c(Oc2ccc3ncn([C@@H]4COC5(CCN(C(=O)CN6CCN(c7ccc(N8CCC(=O)NC8=O)cc7OS(=O)(=O)F)CC6)CC5)C4)c(=O)c3c2)c1C#N [drawing 1195]
[reply] * (>=10 μM is *)

###

# experimental.target: cellular cereblon (CRBN) (Homo sapiens)
# procedure.summary: NanoBRET Target Engagement Assay, competition with pomalidomide tracer in 293T.116 cells
# particulars: NanoBRET TE 293T.116 CRBN 2 hours IC50 nM, 2 hours incubation, 293T.116 cells
observation.type: IC50

Study these solved cases before continuing.
{"compound": "O=C1CCN(c2ccc(S(=O)(=O)F)cc2)C(=O)N1", "IC50": "1000 to 10000 nM"}
{"compound": "CN(c1cccc(S(=O)(=O)F)c1)C1CCC(=O)NC1=O (centres unmarked)", "IC50": "< 1000 nM"}
{"compound": "O=C1NC(=O)C2(Nc3ccc(S(=O)(=O)F)cc3)CC1C2", "IC50": "1000 to 10000 nM"}
{"compound": "O=C1CCC(c2ccc(S(=O)(=O)F)cc2)C(=O)N1 (centres unmarked)", "IC50": "< 1000 nM"}

Next, consider the following compound.
[ask] // lookup IC50 for CN(c1cccc(OS(=O)(=O)F)c1)C1CCC(=O)NC1=O (centres unmarked)
[reply] 1000 to 10000 nM

Ref: patent US20260274856A1
